Entries and their Plant response rating, Oat, Wild
Tested on: oat, wild
PROTOCOL NOTES: Test C postemergence
Format: in vivo, Avena fatua
RECORDED CONDITIONS: 125 g ai/ha, postemergence, 10 days; 0 to 100 scale, 0 no effect, 100 complete control
Text: […]
Give your answer as a number; write no unit.

These recorded examples may help you get a feel for the data.
>>> print(df.to_string())
                                   compound  assay_value
0  COc1ccc(-n2cncn2)cc1C(=O)N1C[C@H](C)Oc2ccccc21 [Compound 228]           30
1  Cc1cccc2c1O[C@@H](C)CN2C(=O)c1cccc(-n2cnc(N(C)C)n2)c1 [Compound 226]           10
2  COC[C@H]1CN(C(=O)c2cc(-n3cnc(C4CC4)n3)ccc2OC)c2cccc(Cl)c2O1 [Compound 235]           40
3  COC[C@H]1CN(C(=O)c2cc(-n3cnc(C4CCC4)n3)ccc2OC)c2cccc(Cl)c2O1 [Compound 236]           10
4  CCc1ccc(-n2cnc(C(C)C)n2)cc1C(=O)N1C[C@H](C)Oc2c(C)cccc21 [Compound 240]           60
5  CCc1ccc(-n2cnc(C(C)(C)O)n2)cc1C(=O)N1C[C@H](C)Oc2c(Cl)cccc21 [Compound 277]           80
6  Cc1cccc2c1O[C@@H](C)CN2C(=O)c1cccc(-n2cnc(C#C[Si](C)(C)C)n2)c1 [Compound 284]           10
7  COc1ccc(-n2cnc(C(C)(C)O)n2)cc1C(=O)N1C[C@H](C)Oc2c(Cl)cccc21 [Compound 254]           80
8  COc1cc(C(=O)N2C[C@H](C)Oc3c(Cl)cccc32)cc(-n2cnc(C(C)(C)C)n2)c1 [Compound 213]           10
9  Cc1ccc(-n2cnc(C(C)C)n2)cc1C(=O)N1C[C@H](C)Oc2c(F)cccc21 [Compound 242]           80

Query compound follows.
[Q] Which value of Plant response rating, Oat, Wild has been reported for Cc1cccc2c1O[C@@H](C)CN2C(=O)c1cc(-n2cnc(C(C)C)n2)cc2occc12 [Compound 195] in the records?
[A] 10

---

Tested on: blackgrass
PROTOCOL NOTES: Test C preemergence
Assay type: in vivo, Alopecurus myosuroides
RECORDED CONDITIONS: Preemergence, 125 g ai/ha; 0 to 100 scale, 0 no effect, 100 complete control
T if Plant response rating, Blackgrass is below 30. F if not; exact matches included in F.

Field: example entries. Status: answers known.
In [3]: df
Out[3]:
                                   compound  discrete_label
0  CCOC[C@H]1CN(C(=O)c2cc(-n3cnc(C(C)C)n3)cc3c2OCO3)c2cccc(Cl)c2O1               T
1  Cc1ccc(-n2cnc(C(C)O)n2)cc1C(=O)N1CC(C)Oc2c(Cl)cccc21 (mixture of isomers)               F
2  C=C(C)c1cc(C(=O)N2C[C@H](C)Oc3c(Cl)cccc32)cc(-n2cncn2)c1               T
3  CCc1ncn(-c2cccc(C(=O)N3CC(C(F)(F)F)Oc4c(C)cccc43)c2)n1 (stereo not shown)               F
4  COC[C@H]1CN(C(=O)c2cc(-n3cnc(C4CCC4)n3)cc3c2OCCO3)c2cccc(Cl)c2O1               T

Attention now turns to another entry.
[Q] Plant response rating, Blackgrass under 30? Item: CC(C)c1ncn(-c2cc(C(=O)N3CC(C(F)(F)F)Oc4c(Cl)cccc43)ccn2)n1 (single isomer, unassigned) [Compound 330]
[A] F

---

System: kochia
PROTOCOL NOTES: Test C preemergence
Type: in vivo, Bassia scoparia
RECORDED CONDITIONS: Preemergence, 125 g ai/ha; 0 to 100 scale, 0 no effect, 100 complete control
Entries and their Plant response rating, Kochia

In [3]: df
Out[3]:
                                   compound  study_system  assay_value
0  CCOC(=O)c1ncn(-c2ccc(C)c(C(=O)N3C[C@H](C)Oc4c(Cl)cccc43)c2)n1 [Compound 342]        kochia            0

[Q] Which value of Plant response rating, Kochia has been reported for Cc1ccc(-n2cnc(C(C)O)n2)cc1C(=O)N1CC(C)Oc2c(Cl)cccc21 (mixture of isomers) [Compound 358] in the records?
[A] 20

[Q] Which value of Plant response rating, Kochia has been reported for CC(=O)c1ncn(-c2ccc(C)c(C(=O)N3C[C@H](C)Oc4c(Cl)cccc43)c2)n1 [Compound 360] in the records?
[A] 20

[Q] Which value of Plant response rating, Kochia has been reported for CCc1ncn(-c2cccc(C(=O)N3CC(C(F)(F)F)Oc4c(C)cccc43)c2)n1 (centres unmarked) [Compound 344] in the records?
[A] 60

[Q] Which value of Plant response rating, Kochia has been reported for COc1ccc(-n2cnc(C3CC3)n2)cc1C(=O)N1C[C@H](C)Oc2c(Cl)cccc21 [Compound 324] in the records?
[A] 90

---

System: kochia
PROTOCOL NOTES: Test A preemergence
Assay type: in vivo, Bassia scoparia
RECORDED CONDITIONS: 500 g ai/ha, 0 to 100 scale (0 no effect, 100 complete control), 10 days
MEASURED ATTRIBUTE: Plant response rating, Kochia
Give your answer as a number; write no unit.

In [3]: df
Out[3]:
                                   molecule  study_system  assay_value
0  Cc1cccc2c1O[C@@H](C)CN2C(=O)c1cccc(-n2ncnc2C(C)C)c1        kochia            0
1  Cc1cccc2c1O[C@@H](C)CN2C(=O)c1cc(-n2cncn2)ccc1Cl        kochia           30
2  C[C@H]1CN(C(=O)c2cc(-n3cncn3)ccc2C(F)(F)F)c2cccc(Cl)c2O1        kochia            0
3  CCc1ncn(-c2ccc(C)c(C(=O)N3C[C@H](C)Oc4c(C)cccc43)c2)n1        kochia          100
4  Cc1ccc(-n2cnc(C3CCC3)n2)cc1C(=O)N1C[C@H](C)Oc2c(C)cccc21        kochia           80
5  CCc1ncn(-c2ccc(C)c(C(=O)N3C[C@H](C)Oc4c(Cl)cccc43)c2)n1        kochia           90

[Q] Query the reported Plant response rating, Kochia for kochia; item: CCc1cccc2c1OC(C)CN2C(=O)c1cccc(-n2cncn2)c1 (centres unmarked)
[A] 0

[Q] Query the reported Plant response rating, Kochia for kochia; item: `CC(C)c1ncn(-c2cccc(C(=O)N3C[C@H](C)Oc4c(Cl)cccc43)c2)n1`
[A] 100

---

Tested on: ragweed
PROTOCOL NOTES: Test C postemergence
Format: in vivo, Ambrosia artemisiifolia
RECORDED CONDITIONS: 125 g ai/ha, postemergence, 10 days; 0 to 100 scale, 0 no effect, 100 complete control
Entries and their Plant response rating, Ragweed
Give your answer as a number; write no unit.

                                   molecule              measured_attribute  assay_value
0  Cc1cccc2c1O[C@@H](C)CN2C(=O)c1cccc(-n2cnc(C(C)(C)O)n2)c1  Plant response rating, Ragweed           70

[Q] Which value of Plant response rating, Ragweed has been reported for `COC(=O)N(C)c1ncn(-c2cccc(C(=O)N3C[C@H](C)Oc4c(C)cccc43)c2)n1` in the records?
[A] 0

[Q] Which value of Plant response rating, Ragweed has been reported for `COC[C@H]1CN(C(=O)c2cc(-n3cncn3)ccc2C)c2cccc(Cl)c2O1` in the records?
[A] 40

[Q] Which value of Plant response rating, Ragweed has been reported for CCc1ncn(-c2ccc(C)c(C(=O)N3CC(C(F)(F)F)Oc4c(Cl)cccc43)c2)n1 (racemic) in the records?
[A] 70

---

Entries and their Plant response rating, Foxtail, Green
Tested on: green foxtail
PROTOCOL NOTES: Test C postemergence
Assay type: in vivo, Setaria viridis
RECORDED CONDITIONS: 500 g ai/ha, postemergence, 10 days, 0 to 100 scale (0 no effect, 100 complete control)
Give your answer as a number; write no unit.

These recorded examples may help you get a feel for the data.
                                   molecule   study_system  assay_value
0  Cc1ccc(-n2cnc(C(C)(C)C#N)n2)cc1C(=O)N1C[C@H](C)Oc2c(Cl)cccc21 [Compound 397]  green foxtail           90
1  Cc1ccc(-n2cnc(C(C)C)n2)cc1C(=O)N1CC(C(F)(F)F)Oc2c(Cl)cccc21 (single isomer, unassigned) [Compound 291]  green foxtail           90
2  CCOCC1CN(C(=O)c2cc(-n3cnc(C(C)(C)C)n3)ccc2OC)c2cccc(Cl)c2O1 (stereo not shown) [Compound 379]  green foxtail           20
3  CC(C)(C)c1ncn(-c2cccc(C(=O)N3CC(C(F)(F)F)Oc4c(Cl)cccc43)c2)n1 (stereo not shown) [Compound 353]  green foxtail           40
4  CCOCC1CN(C(=O)c2cc(-n3cnc(CC)n3)ccc2OC)c2cccc(Cl)c2O1 (stereo not shown) [Compound 378]  green foxtail           90
5  CCOC[C@H]1CN(C(=O)c2cc(-n3cnc(C(C)C)n3)ccc2OC)c2cccc(Cl)c2O1 [Compound 341]  green foxtail           70

Query molecule follows.
[Q] Query the reported Plant response rating, Foxtail, Green for green foxtail; item: Cc1ncn(-c2ccc(C)c(C(=O)N3CC(C(F)(F)F)Oc4c(Cl)cccc43)c2)n1 (stereo not shown) [Compound 349]
[A] 90
